# Test Target: T1, 4H2518-bN
# T1 chain: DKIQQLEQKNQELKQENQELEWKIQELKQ
# Method Description: two-hybrid library CCNG1;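 also: natural log of median RNA to DNA barcode read ratio; higher means stronger binding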
Outcome Measure: interaction score

Take a look at these entries with their results.
[[record]]
binder = "DKIQQLEQEIQELKQENQELKWKNQELEQ [4H2143-bN]"
recorded_result = -0.0822

[[record]]
binder = "DKIQQLEQKNQELKQENQELEWKIQELKQ [4H2518-bN]"
recorded_result = -0.0161

[[record]]
binder = "DKIQQLEQENQELEQKNQELKWEIQELEQ [4H2233-bN]"
recorded_result = 1.97

[[record]]
binder = "DKIQQLEQEIQELKQKNQELEWEIQELKQ [4H2162-bN]"
recorded_result = 0.614

[[record]]
binder = "DEIQQLEQENQELEQKIQELEWKIQELKQ [4H166-bN]"
recorded_result = 1.34


1: DKIQQLEQKNQELEQEIQELKWENQELKQ [4H2444-bN]
2: DEIQQLEQENQELKQKIQELKWENQELEQ [4H235-bN]
stdin: // task: argmin of interaction score over [ 1 , 2 ] Refer to your chosen entry by its label in the reply.
stdout: 2
(2: -0.299, 1: -0.0731)
